Target entity: KRAS^G12C protein (Homo sapiens, UniProt P01116, G12C)
Procedure summary: Bio-Layer Interferometry
Assay type: binding
Where a SMILES comes first, the peptide text is derived from it. Bridges are numbered along the chain shown (N, C = ends). [ ]: non-standard residue; d: D form. S5 = C=CCCC[C@](C)(N)C(=O)O
// values below are reported pKd
pKd (log units): -log10 of the concentration in mol/L.

>  <Compound>
CC[C@H](C)[C@H](NC(=O)CNC(=O)[C@H](Cc1ccccc1)NC(=O)[C@H](Cc1ccccc1)NC(=O)[C@H](CCCNC(=N)N)NC(=O)[C@H](CCCNC(=N)N)NC(C)=O)C(=O)N[C@@]1(C)CCCC=CCCC[C@@](C)(C(=O)N[C@@H](CC(C)C)C(=O)N[C@@H](CCCCN)C(=O)N[C@H](C(=O)N[C@@H](CCC(=O)O)C(=O)N[C@@H](CCC(=O)O)C(=O)NCC(=O)N[C@@H](CC(N)=O)C(N)=O)[C@@H](C)O)NC(=O)[C@H](CC(N)=O)NC(=O)[C@H]([C@@H](C)O)NC(=O)[C@H](CC(C)C)NC1=O [Peptide 1, reference compound]

>  <pKd>
4.23

$$$$

The compound listed as CC[C@H](C)[C@H](NC(=O)CNC(C)=O)C(=O)N[C@@]1(C)CCCC=CCCC[C@@](C)(C(=O)N[C@@H](CC(C)C)C(=O)N[C@@H](CCCCN)C(N)=O)NC(=O)[C@H](CC(N)=O)NC(=O)[C@H]([C@@H](C)O)NC(=O)[C@H](CC(C)C)NC1=O [Peptide 4] (Ac-GI[S5]LTN[S5]LK-NH2; staple 3-7) has a reported pKd of 4.60
